Data origin: patent US10377770B2

Would you kindly list IC50 for each of these compounds?
Molecular target: C-Raf FL (full length CRAF with Y340E and Y341E activating mutations, co-expressed with h14-3-3 zeta) (Homo sapiens (Human), UniProt P04049, Y340E/Y341E)
Sequence (P04049 whole entry Y340E/Y341E): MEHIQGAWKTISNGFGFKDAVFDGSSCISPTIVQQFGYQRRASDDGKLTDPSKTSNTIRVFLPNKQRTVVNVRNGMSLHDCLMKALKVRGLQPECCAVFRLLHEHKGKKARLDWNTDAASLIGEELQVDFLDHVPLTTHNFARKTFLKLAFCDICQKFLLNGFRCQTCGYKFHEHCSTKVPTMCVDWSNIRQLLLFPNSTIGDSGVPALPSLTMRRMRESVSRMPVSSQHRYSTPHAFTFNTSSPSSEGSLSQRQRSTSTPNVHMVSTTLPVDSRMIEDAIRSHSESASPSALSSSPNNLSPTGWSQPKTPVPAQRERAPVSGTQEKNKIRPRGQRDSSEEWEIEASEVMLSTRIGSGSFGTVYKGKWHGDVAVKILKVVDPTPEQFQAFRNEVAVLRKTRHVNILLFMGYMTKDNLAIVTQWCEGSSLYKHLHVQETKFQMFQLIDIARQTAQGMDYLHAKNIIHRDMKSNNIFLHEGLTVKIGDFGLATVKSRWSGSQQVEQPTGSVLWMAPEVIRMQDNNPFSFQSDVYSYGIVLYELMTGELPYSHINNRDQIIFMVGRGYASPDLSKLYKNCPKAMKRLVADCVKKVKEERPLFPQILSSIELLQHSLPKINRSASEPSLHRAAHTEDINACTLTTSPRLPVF
Sequence (P63104 whole entry partner): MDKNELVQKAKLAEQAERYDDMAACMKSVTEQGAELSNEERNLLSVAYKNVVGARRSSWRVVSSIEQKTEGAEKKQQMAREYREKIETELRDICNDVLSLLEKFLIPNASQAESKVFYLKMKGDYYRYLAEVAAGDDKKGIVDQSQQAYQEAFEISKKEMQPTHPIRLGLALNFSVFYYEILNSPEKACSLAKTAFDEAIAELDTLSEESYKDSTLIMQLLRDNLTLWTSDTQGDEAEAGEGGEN
Experiment: In vitro Raf activity determination, AlphaScreen p-MEK readout, c-Raf (C-Raf FL)
Conditions: c-Raf approximately 4 nM, ATP 1 μM, pre-incubation 60 minutes, reaction 1 hour
Answer shape: numeric part, then the unit.

Exercise: I have this compound here, Cc1ccc(NC(=O)c2ccnc(C(C)(F)F)c2)cc1-c1ccc2c(c1)N1CCOC[C@H]1[C@@](F)(CO)C2 , and I need its recorded IC50.
Solution: 0.2 nM

Exercise: Record request: IC50 value, item Cc1ccc(NC(=O)c2ccnc(C(C)(C)F)c2)cc1-c1cnc2c(c1)N1CCOC[C@H]1C[C@H]2O
Solution: 0.021 nM

Exercise: Requested field: IC50. Item: Cc1ccc(NC(=O)c2ccnc(C(F)(F)F)c2)cc1-c1cnc2c(c1)N1CCOC[C@H]1[C@](C)(C#N)C2
Solution: 0.9 nM

Exercise: Look at this compound and give its reported IC50. CCN1C(=O)[C@H]2COCC[C@@H]2c2cc(-c3cc(NC(=O)c4ccnc(C(C)(C)F)c4)cnc3C)cnc21
Solution: 0.1 nM

Exercise: What value of IC50 has been reported for the following compound? Cc1ccc(NC(=O)c2ccnc(C(C)(F)F)c2)cc1-c1ccc2c(c1)N1CCOCC1C(F)(CO)C2 (single isomer, unassigned) [Example 82]
Solution: 0.17 nM

Exercise: Record request: IC50 value, item CCN1C(=O)OC2COCCC2c2cc(-c3cc(NC(=O)c4cccc(C(F)(F)F)c4)cnc3C)cnc21 (centres unmarked) [Example 298]
Solution: 0.3 nM

Exercise: Consider the compound CCN1C(=O)C2COCCC2(C)c2cc(-c3cc(NC(=O)c4cccc(C(F)(F)F)c4)cnc3C)cnc21 (centres unmarked) and give its measured IC50.
Solution: 3 nM

Exercise: Which IC50 is listed for CCN1C(=O)O[C@H]2COCC[C@@H]2c2cc(-c3cc(NC(=O)c4ccnc(C(F)(F)F)c4)ccc3C)cnc21 ?
Solution: 0.3 nM

Exercise: Fill in the blank: the reported IC50 of Cc1ccc(NC(=O)c2ccnc(C(F)(F)F)c2)cc1-c1cnc2c(c1)N1CCOC[C@H]1C[C@@]2(O)C(F)(F)F (racemic) is ____.
Solution: 0.025 nM

Exercise: Return reported IC50; argument: Cc1ccc(NC(=O)c2ccnc(C(C)(F)F)c2)cc1-c1cc2c(nn1)[C@H](O)C[C@@H]1COCCN21 (racemic)
Solution: 0.014 nM

Exercise: Requested field: IC50. Item: Cc1ccc(NC(=O)c2ccnc(C(F)(F)F)c2F)cc1-c1cnc2c(c1)C1C3COCC3C1C(=O)N2CCO (centres unmarked) [Example 283]
Solution: 0.2 nM

Exercise: Quick one: IC50 of Cc1ncc(NC(=O)c2ccnc(C(C)(F)F)c2)cc1-c1ccc2c(c1)N1CCOCCC1CC2O (racemic) ?
Solution: 0.053 nM

Exercise: Sample Cc1ccc(NC(=O)c2ccnc(C(F)(F)F)c2)cc1-c1cc2c(cc1F)C[C@@](F)(CO)[C@@H]1COCCN21 — what was its IC50?
Solution: 0.3 nM

Exercise: IC50 for Cc1ccc(NC(=O)c2ccnc(C(F)(F)F)c2)cc1-c1cc2n(c(=O)c1)CCC1COCCN21 (racemic) ?
Solution: 0.019 nM
